Data credit: patent US20200087373A1

Tested target: T1, human GIP receptor (human, UniProt P48546 22-466)
T1 construct: whole, on cells; Transiently transfected COS-7 cells expressing the human GIP receptor; also called hGIPR
T1 sequence (looked up): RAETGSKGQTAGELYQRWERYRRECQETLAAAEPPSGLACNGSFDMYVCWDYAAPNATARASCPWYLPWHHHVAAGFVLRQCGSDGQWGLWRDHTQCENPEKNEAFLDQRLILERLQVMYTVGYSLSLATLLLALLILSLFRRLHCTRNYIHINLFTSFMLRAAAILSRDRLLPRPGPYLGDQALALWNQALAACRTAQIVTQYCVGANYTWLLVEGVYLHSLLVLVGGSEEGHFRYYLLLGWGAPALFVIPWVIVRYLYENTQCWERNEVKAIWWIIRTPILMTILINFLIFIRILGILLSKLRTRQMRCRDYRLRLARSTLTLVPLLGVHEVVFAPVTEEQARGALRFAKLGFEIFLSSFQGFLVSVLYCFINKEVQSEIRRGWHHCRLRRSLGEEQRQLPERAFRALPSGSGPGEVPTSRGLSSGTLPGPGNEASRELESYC
Assay comment: 125I-hGIP(1-42) competition binding, COS-7 cells expressing human GIPR, 2% HSA
Ends that are not written are not given here. * marks the point of attachment. Myristoyl = CCCCCCCCCCCCCC(=O)*
Observation type: pIC50
Hey, just a heads up that pIC50 is the negative log base 10 of the concentration in molar.

Problem: Please look up its pIC50: EGTFISDYSIAMDK(Myristoyl)IHQQDFVNWLLAQK-NH2 [AT111 [hGIP(3-30)NH2-C14/16]]
Result: 5.68
